Provenance of the data: patent US5990136A

Measured MIC, listed per entry.
# Tested on: Streptococcus Pneumoniae UC ® No. 9912
test_readout: MIC (mg/L)

1) CC(=O)NCC1CC(c2ccc(C3=CCN(C(C)=O)CC3)cc2)=NO1 (stereo not drawn) [Example 7]
2
2) COc1ccc(-c2ccc(C3=NOC(CNC(C)=O)C3)cc2)ccc1=O (racemic) [Example 1]
1
3) CC(=O)NC[C@H]1CC(c2ccc(-c3ccncc3)cc2)=NO1 [Example 8]
0.25
4) CC(=O)NCC1CC(c2ccc(C3=CCN(C(=O)CO)CC3)cc2)=NO1 (stereo not drawn) [Example 4]
2
5) CC(=O)NC[C@H]1CC(c2ccc(C3=CCN(C(=O)CO)CC3)cc2)=NO1 [Example 5]
0.5
6) COC(=O)N1CC=C(c2ccc(C3=NOC(CNC(C)=O)C3)cc2)CC1 (stereo not drawn) [Example 6]
4
